System: MCF-7 cells
Assay Text: cells
Experimental Parameters: Homo sapiens, MCF7, read-out: EC50, SD, MCF-7 cell line; EC50 of the standard deviation
Property Label: EC50 (µM)
State just the number; it will be interpreted in µM.

Request: Recorded EC50 for COc1cccc2c1C(=O)c1c(O)c3c(c(O)c1C2=O)C[C@@](O)(C(=O)CO)C[C@@H]3O[C@H]1C[C@H](N)[C@H](O)[C@H](C)O1 [Doxorubicin] , please?
Response: 11

====

Here the recorded DoR CTG is given for each entry.
Tested on: MDA-MB-231 cells
Assay Text: CellTiter-Glo (CTG) ATP viability assay, MDA-MB-231
Assay type: cell-based
Experimental Parameters: MDA-MB-231 cell line; depth of response, CellTiter-Glo
Enter the number alone.

Answered cases to consult:
Molecule	DoR CTG
C[C@]12CC[C@@H]3c4ccc(O)cc4C[C@@H](CCCCCCCCC[S+]([O-])CCCC(F)(F)C(F)(F)F)[C@H]3[C@@H]1CC[C@@H]2O (stereo partly shown)	1.0
O=c1[nH]cc(F)c(=O)[nH]1	0.5
CC(=O)c1c(C)c2cnc(Nc3ccc(N4CCNCC4)cn3)nc2n(C2CCCC2)c1=O	0.7

Kindly consider the entry below.
Request: Any idea what DoR CTG was measured for CC(=O)O[C@@]12CO[C@@H]1C[C@H](O)[C@@]1(C)C(=O)[C@H](O)C3=C(C)[C@@H](OC(=O)[C@H](O)[C@@H](NC(=O)OC(C)(C)C)c4ccccc4)C[C@@](O)([C@@H](OC(=O)c4ccccc4)[C@H]21)C3(C)C ?
Response: 0.7

Measured values drawn from patent US20250052985A1 for this set.
